Test: MTMD (Maximum Tolerated Multiple Dose) determination
Format: in vivo
Details: iv, Q7dx3; female athymic nude mice
QUANTITY MEASURED: MTMD (mg/kg)
The figure you give is taken to be in mg/kg; do not add the unit.

Exam item: Tell me the measured MTMD of COC1=CC[C@@H]([C@@H](C)/C=C(C)/C=C\C=C/C(=O)N[C@H](C(=O)N/C=C\C[C@H](C/C=C(\C)F)OC(N)=O)C(C)(C)C)OC1=O [Compound 2] , please.
Marked response: 2.0

Exam item: Another compound: COC1=CC[C@@H]([C@@H](C)/C=C(C)/C=C\C=C/C(=O)N[C@H](C(=O)N/C=C\C[C@H](C/C=C(\C)Cl)OC(N)=O)C(C)(C)C)OC1=O [PM050489, reference compound]
Marked response: 0.075

Exam item: Another compound: COC1=CC[C@@H]([C@@H](C)/C=C(C)/C=C\C=C/C(=O)N[C@H](C(=O)N/C=C\C[C@H](CC=C(C)C)OC(N)=O)C(C)(C)C)OC1=O [Compound 3]
Marked response: 1.0

Exam item: Another compound: C/C=C\C[C@@H](C/C=C\NC(=O)[C@@H](NC(=O)\C=C/C=C\C(C)=C\[C@H](C)[C@@H]1CC=C(OC)C(=O)O1)C(C)(C)C)OC(N)=O [PM060184, reference compound]
Marked response: 16.0

---

Experiment: MTD (Maximum Tolerated Dose) determination
Conditions: Athymic Nude-Fox1 nu/nu, mouse, in vivo; iv, single dose; female athymic nude mice
QUANTITY MEASURED: MTD (mg/kg)
The figure you give is taken to be in mg/kg; do not add the unit.

Exam item: Tell me the measured MTD of C/C=C\C[C@@H](C/C=C\NC(=O)[C@@H](NC(=O)\C=C/C=C\C(C)=C\[C@H](C)[C@@H]1CC=C(OC)C(=O)O1)C(C)(C)C)OC(N)=O [PM060184, reference compound] , please.
Marked response: 16
